Source: the RepoRT retention time repository (doi:10.1016/j.foodchem.2021.129757)

Hi there, I'd appreciate the recorded LC retention time for every entry that follows.
experiment: RP, Waters ACQUITY UPLC HSS T3, 100 × 2.1 mm, 50 °C; A: water + 0.1% formic acid, pH 3; B: 30% methanol + 70% acetonitrile + 0.1% formic acid, pH 3; gradient (min/%B) 0/5 1/8 2/15 3/40 4/70 4.5/100 5/100 6.4/100 6.6/5 6.8/5 7/5; settings: stereoisomer not certain
Numbers only, in min.

{"molecule": "O=C(O)CCc1ccc(O)cc1O [3-(2,4-dihydroxyphenyl)propionic acid]", "value_reported": 3.02}
{"molecule": "O=C(O)Cc1c[nH]c2ccc(O)cc12 [5-Hydroxyindole-3-acetic acid]", "value_reported": 2.86}
{"molecule": "COc1ccc(-c2cc(=O)c3c(O)cc(OC4OC(C(=O)O)C(O)C(O)C4O)cc3o2)cc1O (centres undefined) [Diosmetin 7-glucuronide]", "value_reported": 3.6}
{"molecule": "O=C(O)Cc1c[nH]c2ccccc12 [3-Indoleacetic acid]", "value_reported": 3.62}

# map each molecule to its LC retention time
1. OC1C(O)C(O)C(O)C(O)C1O (centres undefined) [Myo-inositol]
2. COc1cc(C=O)ccc1O [Vanillin]
3. COc1cc(C(=O)O)cc(OC)c1O [Syringic acid]
4. O=C(O)CCCCCCCC(=O)O [Azelaic acid]
5. O=c1c(O)c(-c2ccc(O)cc2)oc2cc(O)cc(O)c12 [Kaempferol]

[A]
1: 0.461; 2: 3.46; 3: 3.33; 4: 3.63; 5: 3.88

====

assay: RP, 150 × 2.1 mm, 2.6 µm, 40 °C, 0.35 mL/min, estimated dead time 0.94 min; A: water + 0.1% formic acid, pH 3; B: acetonitrile + 0.1% formic acid, pH 3; gradient (min/%B) 0/0 1/0 12.5/100 14/100 14.2/0 15/0; conditions: stereoisomer not certain
Class (by LC retention time) -- low: < 5 min; moderate: ≥ 5 min and < 6 min; high: ≥ 6 min

{"compound": "O=C1CC(c2ccc(O)cc2)Oc2cc(O)cc(O)c21 (centres undefined) [Naringenin]", "class_assignment": "high"}
{"compound": "Nc1c(O)cccc1C(=O)O [3-Hydroxyanthranilic acid]", "class_assignment": "low"}
{"compound": "O=c1ccc2ccc(O)c(O)c2o1 [7,8-Dihydroxycoumarin]", "class_assignment": "low"}
{"compound": "O=C(NC(O)C(=O)O)c1ccccc1 (stereo not drawn) [Alpha-hydroxyhippuric acid]", "class_assignment": "low"}
{"compound": "O=c1c(-c2ccc(O)cc2)coc2cc(O)cc(O)c12 [Genistein]", "class_assignment": "high"}

[Q] Looking at CC1OC(OCC2OC(Oc3c(-c4ccc(O)cc4)oc4cc(O)cc(O)c4c3=O)C(O)C(O)C2O)C(O)C(O)C1O (centres undefined) [Kaempferol 3-O-rutinoside] , which class would you pick?
[A] moderate

[Q] Looking at O=C(O)c1cc(=O)c2ccccc2[nH]1 [kynurenic acid] , which class would you pick?
[A] low

[Q] Looking at O=C(O)C=Cc1ccccc1O [o-Coumaric acid] , which class would you pick?
[A] high

[Q] Looking at O=C(OC1Cc2c(O)cc(O)cc2OC1c1ccc(O)c(O)c1)c1cc(O)c(O)c(O)c1 (centres undefined) [Epicatechin gallate] , which class would you pick?
[A] moderate

[Q] Looking at CC(C=CC1(O)C(C)=CC(=O)CC1(C)C)=CC(=O)O (centres undefined) [Abscisic acid] , which class would you pick?
[A] high

[Q] Looking at COc1cccc(O)c1O [3-Methoxycatechol] , which class would you pick?
[A] low

[Q] Looking at O=S(=O)(O)c1[nH]c2ccccc2c1CCO [Tryptophol-2-sulfonate] , which class would you pick?
[A] low

[Q] Looking at COc1cc(-c2oc3cc(O)cc(O)c3c(=O)c2OC2OC(COC3OC(C)C(O)C(O)C3O)C(O)C(O)C2O)ccc1O (centres undefined) [Isorhamnetin-3-O-rutinoside] , which class would you pick?
[A] moderate

[Q] Looking at O=C(O)CCCc1c[nH]c2ccccc12 [3-Indolebutyric acid] , which class would you pick?
[A] high

[Q] Looking at COc1ccc2[nH]cc(CCNC(C)=O)c2c1 [Melatonin] , which class would you pick?
[A] high

[Q] Looking at O=C1CC(c2ccc(O)c(O)c2)Oc2cc(O)cc(O)c21 (centres undefined) [Eriodictyol] , which class would you pick?
[A] high

====

Hi there, I'd appreciate the recorded LC retention time for every entry that follows.
assay: RP, Phenomenex Synergi Hydro-RP, 150 × 2 mm, 4 µm, 30 °C, 0.5 mL/min, estimated dead time 0.6 min; A: water + 0.1% formic acid, pH 3; B: acetonitrile + 0.1% formic acid, pH 3; gradient (min/%B) 0/5 1/5 35/45 40/100 45/100; conditions: stereoisomer not certain

# map each molecule to its LC retention time
1. O=C(O)Cc1ccc(O)cc1 [4-Hydroxyphenylacetic acid]
2. O=c1cc(-c2ccc(O)c(O)c2)oc2cc(O)cc(O)c12
3. OCC1OC(Oc2cc3c(O)cc(O)cc3[o+]c2-c2ccc(O)c(O)c2)C(O)C(O)C1O (stereo not drawn) [Cyanidin 3-O-glucoside]

[A]
1. 11.9 min
2. 22.6 min
3. 9.85 min

====

assay: Other, Phenomenex Kinetex PFP, 100 × 4.6 mm, 2.6 µm, 35 °C, 1.5 mL/min, estimated dead time 0.71 min; A: water + 0.1% trifluoroacetic acid, pH 2; B: acetonitrile + 0.1% trifluoroacetic acid, pH 2; gradient (min/%B) 0/1 7/7.5 14/7.6 17/10 18.5/12 20/12.5 24/30 25/90 25.1/1 32/1; details: stereoisomer not certain
Hi there, I'd appreciate the recorded LC retention time for every entry that follows.
Give bare numbers, in min.

# map each compound to its LC retention time
1. O=Cc1c(O)cc(O)cc1O [Phloroglucinol aldehyde]
2. COc1cc2ccc(=O)oc2cc1O [Scopoletin]
3. COc1cccc(O)c1C(=O)O [6-Methoxysalicyclic acid]
4. O=C(O)C=Cc1ccc(O)cc1 [p-Coumaric acid]
5. O=c1ccc2ccc(O)c(O)c2o1 [7,8-Dihydroxycoumarin]
6. COC(=O)c1ccc(O)c(OC)c1 [Methyl vanillate]
7. O=C(O)Cc1ccc(O)c(O)c1 [3,4-Dihydroxyphenylacetic acid]

[A]
18.5
20.4
22.1
17.6
12
23
15.3

# map each compound to its LC retention time
1. Cc1cccc(C(=O)NCC(=O)O)c1 [3-methylhippuric acid]
2. COc1cc(C=CC(=O)O)cc(OC)c1O [Sinapic acid]
3. O=Cc1ccc(O)cc1O [2,4-dihydroxybenzaldehyde]

[A]
1: 14.8; 2: 22.3; 3: 14.7

====

Hi there, I'd appreciate the recorded LC retention time for every entry that follows.
experiment: RP, Agilent ZORBAX RRHD Eclipse Plus C18, 50 × 2.1 mm, 1.8 µm, 30 °C, 0.4 mL/min, estimated dead time 0.28 min; A: water + 0.1% formic acid, pH 3; B: acetonitrile + 0.1% formic acid, pH 3; gradient (min/%B) 0/1 5/10 8/25 9.1/99 10/99 12/1; conditions: stereoisomer not certain
One number for each entry, in min.

{"molecule": "O=C(O)c1cccc(O)c1O [2,3-Dihydroxybenzoic acid]", "value_units": "min", "LC retention time": 5.18}
{"molecule": "O=C(O)CNC(=O)c1cccc(O)c1 [3-Hydroxyhippuric acid]", "value_units": "min", "LC retention time": 3.58}
{"molecule": "O=S(=O)(O)Oc1ccccc1O [Catechol O-sulfate]", "value_units": "min", "LC retention time": 2.95}

# map each molecule to its LC retention time
1. Cc1ccc(O)c(OS(=O)(=O)O)c1 [4-Methylcatechol-2-O-sulfate]
2. O=c1c(O)c(-c2ccc(O)cc2)oc2cc(O)cc(O)c12

[A]
1: 5.96; 2: 9.16

====

experiment: RP, Phenomenex Luna C18, 150 × 4.6 mm, 3 µm, 25 °C, 0.5 mL/min, estimated dead time 3.2 min; A: water + 0.1% formic acid, pH 3; B: acetonitrile + 0.1% formic acid, pH 3; gradient (min/%B) 0/0 30/30 35/40 50/80 52/80 60/0 65/0; conditions: stereoisomer not certain
Lab note: anything with LC retention time at or over 20 min counts as fulfilled; the rest go in not fulfilled.

Consider the worked cases shown below.
{"molecule": "O=C(O)c1cc(O)c(O)c(O)c1", "class_assignment": "not fulfilled"}
{"molecule": "COc1ccc(-c2cc(=O)c3c(OC)c(OC)c(OC)c(OC)c3o2)cc1", "class_assignment": "fulfilled"}
{"molecule": "O=C(C=Cc1ccc(O)c(O)c1)OC(Cc1ccc(O)c(O)c1)C(=O)O (stereo not given)", "class_assignment": "fulfilled"}
{"molecule": "COc1cc(C=O)ccc1O", "class_assignment": "fulfilled"}

# next molecule below
[Q] Is LC retention time at least 20 min? Consider O=C(O)CNC(=O)c1ccccc1
[A] not fulfilled

====

assay: RP, Merck LiChrospher RP-18, 250 × 4 mm, 5 µm, 35 °C, 0.3 mL/min, estimated dead time 6.7 min; A: water + 0.5% formic acid; B: acetonitrile + 0.5% formic acid; gradient (min/%B) 0/5 10/5 30/15 45/20 65/20 95/54 110/63 115/5 135/5; settings: stereoisomer not certain
Please respond with class 1 when measured LC retention time is strictly beneath 80 min, and with class 0 in all other cases.

Consider the worked cases shown below.
{"molecule": "O=c1oc2c(O)c(O)cc3c(=O)oc4c(O)c(O)cc1c4c23", "class_assignment": "class 1"}
{"molecule": "Oc1ccc(C=Cc2cc(O)cc(O)c2)cc1", "class_assignment": "class 0"}
{"molecule": "O=C(O)/C=C/c1cccc(O)c1", "class_assignment": "class 1"}
{"molecule": "O=C(C=Cc1ccc(O)c(O)c1)OC1CC(O)(C(=O)O)CC(O)C1O (stereo not drawn)", "class_assignment": "class 1"}
{"molecule": "O=C(O)c1ccc(O)cc1 [4-Hydroxybenzoic acid]", "class_assignment": "class 1"}

[Q] Criterion: LC retention time strictly below 80 min. Is it met by COc1cc(/C=C/C(=O)O)ccc1O ?
[A] class 1
